These data points were gathered from ChEMBL document CHEMBL3045406.

System: Oryza sativa
Assay: Effect on Oryza sativa (rice) assessed as growth rate at 10 uM relative to control
Type: organism-based
Details: in vivo
Some compounds, each annotated with its measured Activity.
Hi, when you answer, please include the unit after the number. Thanks!

smiles-notation | Activity
C[C@H](NC(=O)Nc1cccc(C(F)(F)F)c1)c1ccccc1 | 92%
CCOC(=O)c1cccc(NC(=O)N[C@H](C)c2ccccc2)c1 | 88%

INPUT: Look up Activity for this compound: "CCc1ccc(NC(=O)N[C@@H](C)c2ccccc2)cc1"
OUTPUT: 91%

INPUT: If you can, please state the reported Activity value of "C[C@@H](NC(=O)Nc1ccc(Br)cc1)c1ccccc1" .
OUTPUT: 87%

INPUT: Recorded Activity for "CCCCCc1ccc(NC(=O)N[C@H](C)c2ccccc2)cc1" , please?
OUTPUT: 97%

INPUT: Data request, read-out Activity, for "C[C@@H](NC(=O)Nc1cccc(F)c1F)c1ccccc1"
OUTPUT: 90%

INPUT: Which Activity is reported for this compound? "C[C@H](NC(=O)Nc1ccccc1I)c1ccccc1"
OUTPUT: 98%

INPUT: Consider the compound "Cc1cc(F)ccc1NC(=O)N[C@H](C)c1ccccc1" and give its measured Activity.
OUTPUT: 94%

INPUT: For the compound shown here, "C[C@H](NC(=O)Nc1ccccc1C(F)(F)F)c1ccccc1" , give the reported Activity.
OUTPUT: 97%

INPUT: Name the recorded Activity for "CCCCc1ccc(NC(=O)N[C@@H](C)c2ccccc2)cc1" .
OUTPUT: 60%
